# target_or_test_system: HIV-1 RT (Human immunodeficiency virus type 1 group M subtype B, UniProt P04585)
# Construct: HIV-1 Reverse Transcriptase serves, in the HIV-1 viral replication process, as catalyst; purchased Ambion
# assay_name: Gel-based single nucleotide incorporation assay by HIV-1 RT (primer-template P1T1)
# Assay type: biochemical
# condition_context: 100 μM substrate, 30 min, P1T1 125 nM
property: % of P + 1 (%)
Write the answer as a number in %, unit excluded.

Qu. Entry under review: `Nc1ncnc2c1ncn2[C@H]1C[C@H](O)[C@@H](COP(=O)(O)N[C@@H](CS(=O)(=O)O)C(=O)O)O1` . Reported % of P + 1?
Ans. 8.5

Qu. Entry under review: `Nc1ncnc2c1ncn2[C@H]1C[C@H](O)[C@@H](COP(=O)(O)NCCS(=O)(=O)O)O1` . Reported % of P + 1?
Ans. 4.8

Qu. Entry under review: `Nc1ncnc2c1ncn2[C@H]1C[C@H](O)[C@@H](COP(=O)(O)N[C@@H](COP(=O)(O)O)C(=O)O)O1` . Reported % of P + 1?
Ans. 4.6

Qu. Entry under review: `Nc1ncnc2c1ncn2[C@H]1C[C@H](O)[C@@H](COP(=O)(O)N[C@@H](CP(=O)(O)O)C(=O)O)O1` . Reported % of P + 1?
Ans. 97.6

====

# target_or_test_system: HIV-1 RT (Human immunodeficiency virus type 1 group M subtype B)
# Construct: HIV-1 Reverse Transcriptase serves, in the HIV-1 viral replication process, as catalyst; purchased Ambion
# assay_name: Gel-based single nucleotide incorporation assay by HIV-1 RT (primer-template P1T1)
# Format: biochemical
# condition_context: 200 μM substrate, 120 min, P1T1 125 nM
property: % of P + 1 (%)
Write the answer as a number in %, unit excluded.

Qu. Entry under review: `Nc1ncnc2c1ncn2[C@H]1C[C@H](O)[C@@H](COP(=O)(O)NCCS(=O)(=O)O)O1` . Reported % of P + 1?
Ans. 4.3

Qu. Entry under review: `Nc1ncnc2c1ncn2[C@H]1C[C@H](O)[C@@H](COP(=O)(O)N[C@@H](CP(=O)(O)O)C(=O)O)O1` . Reported % of P + 1?
Ans. 94.2

Qu. Entry under review: `Nc1ncnc2c1ncn2[C@H]1C[C@H](O)[C@@H](COP(=O)(O)N[C@@H](CS(=O)(=O)O)C(=O)O)O1` . Reported % of P + 1?
Ans. 18.1

Qu. Entry under review: `Nc1ncnc2c1ncn2[C@H]1C[C@H](O)[C@@H](COP(=O)(O)N[C@@H](COP(=O)(O)O)C(=O)O)O1` . Reported % of P + 1?
Ans. 9.5

====

# target_or_test_system: HIV-1 RT (Human immunodeficiency virus type 1 group M subtype B, UniProt P04585)
# Construct: HIV-1 Reverse Transcriptase serves, in the HIV-1 viral replication process, as catalyst; purchased Ambion
# assay_name: Gel-based single nucleotide incorporation assay by HIV-1 RT (primer-template P1T1)
# Type: biochemical
# condition_context: 200 μM substrate, 60 min, P1T1 125 nM
What % of P + 1 was measured for each of the following?
Write the answer as a number in %, unit excluded.

Qu. Entry under review: Nc1ncnc2c1ncn2[C@H]1C[C@H](O)[C@@H](COP(=O)(O)N[C@@H](COP(=O)(O)O)C(=O)O)O1 [Compound 5] . Reported % of P + 1?
Ans. 6.6

Qu. Entry under review: Nc1ncnc2c1ncn2[C@H]1C[C@H](O)[C@@H](COP(=O)(O)N[C@@H](CS(=O)(=O)O)C(=O)O)O1 [Compound 2] . Reported % of P + 1?
Ans. 15.8

Qu. Entry under review: Nc1ncnc2c1ncn2[C@H]1C[C@H](O)[C@@H](COP(=O)(O)N[C@@H](CP(=O)(O)O)C(=O)O)O1 [Compound 3] . Reported % of P + 1?
Ans. 93.0

Qu. Entry under review: Nc1ncnc2c1ncn2[C@H]1C[C@H](O)[C@@H](COP(=O)(O)NCCS(=O)(=O)O)O1 [Compound 1] . Reported % of P + 1?
Ans. 5.1

====

# target_or_test_system: HIV-1 RT (Human immunodeficiency virus type 1 group M subtype B, UniProt P04585)
# Construct: HIV-1 Reverse Transcriptase serves, in the HIV-1 viral replication process, as catalyst; purchased Ambion
# assay_name: Gel-based single nucleotide incorporation assay by HIV-1 RT (primer-template P1T1)
# Format: biochemical
# condition_context: 100 μM substrate, 20 min, P1T1 125 nM
property: % of P + 1 (%)
Write the answer as a number in %, unit excluded.

Qu. Entry under review: `Nc1ncnc2c1ncn2[C@H]1C[C@H](O)[C@@H](COP(=O)(O)N[C@@H](CS(=O)(=O)O)C(=O)O)O1` . Reported % of P + 1?
Ans. 7.9

Qu. Entry under review: `Nc1ncnc2c1ncn2[C@H]1C[C@H](O)[C@@H](COP(=O)(O)N[C@@H](CP(=O)(O)O)C(=O)O)O1` . Reported % of P + 1?
Ans. 97.7

Qu. Entry under review: `Nc1ncnc2c1ncn2[C@H]1C[C@H](O)[C@@H](COP(=O)(O)NCCS(=O)(=O)O)O1` . Reported % of P + 1?
Ans. 4.0

Qu. Entry under review: `Nc1ncnc2c1ncn2[C@H]1C[C@H](O)[C@@H](COP(=O)(O)N[C@@H](COP(=O)(O)O)C(=O)O)O1` . Reported % of P + 1?
Ans. 3.2

====

What % of P + 1 was measured for each of the following?
# target_or_test_system: HIV-1 RT (Human immunodeficiency virus type 1 group M subtype B, UniProt P04585)
# Construct: HIV-1 Reverse Transcriptase serves, in the HIV-1 viral replication process, as catalyst; purchased Ambion
# assay_name: Gel-based single nucleotide incorporation assay by HIV-1 RT (primer-template P1T1)
# Type: biochemical
# condition_context: 100 μM substrate, 60 min, P1T1 125 nM

Qu. Entry under review: `Nc1ncnc2c1ncn2[C@H]1C[C@H](O)[C@@H](COP(=O)(O)N[C@@H](CP(=O)(O)O)C(=O)O)O1` . Reported % of P + 1?
Ans. 97.9%

Qu. Entry under review: `Nc1ncnc2c1ncn2[C@H]1C[C@H](O)[C@@H](COP(=O)(O)N[C@@H](COP(=O)(O)O)C(=O)O)O1` . Reported % of P + 1?
Ans. 5.1%

Qu. Entry under review: `Nc1ncnc2c1ncn2[C@H]1C[C@H](O)[C@@H](COP(=O)(O)N[C@@H](CS(=O)(=O)O)C(=O)O)O1` . Reported % of P + 1?
Ans. 9.3%

Qu. Entry under review: `Nc1ncnc2c1ncn2[C@H]1C[C@H](O)[C@@H](COP(=O)(O)NCCS(=O)(=O)O)O1` . Reported % of P + 1?
Ans. 6.3%

====

What % of P + 1 was measured for each of the following?
# target_or_test_system: HIV-1 RT (Human immunodeficiency virus type 1 group M subtype B)
# Construct: HIV-1 Reverse Transcriptase serves, in the HIV-1 viral replication process, as catalyst; purchased Ambion
# assay_name: Gel-based single nucleotide incorporation assay by HIV-1 RT (primer-template P1T1)
# Format: biochemical
# condition_context: 200 μM substrate, 10 min, P1T1 125 nM
Answers without a unit are incomplete; give the number and then its unit.

Qu. Entry under review: `Nc1ncnc2c1ncn2[C@H]1C[C@H](O)[C@@H](COP(=O)(O)NCCS(=O)(=O)O)O1` . Reported % of P + 1?
Ans. 3.1%

Qu. Entry under review: `Nc1ncnc2c1ncn2[C@H]1C[C@H](O)[C@@H](COP(=O)(O)N[C@@H](CP(=O)(O)O)C(=O)O)O1` . Reported % of P + 1?
Ans. 91.7%

Qu. Entry under review: `Nc1ncnc2c1ncn2[C@H]1C[C@H](O)[C@@H](COP(=O)(O)N[C@@H](COP(=O)(O)O)C(=O)O)O1` . Reported % of P + 1?
Ans. 3.7%

Qu. Entry under review: `Nc1ncnc2c1ncn2[C@H]1C[C@H](O)[C@@H](COP(=O)(O)N[C@@H](CS(=O)(=O)O)C(=O)O)O1` . Reported % of P + 1?
Ans. 13.7%

====

# target_or_test_system: HIV-1 RT (Human immunodeficiency virus type 1 group M subtype B)
# Construct: HIV-1 Reverse Transcriptase serves, in the HIV-1 viral replication process, as catalyst; purchased Ambion
# assay_name: Gel-based single nucleotide incorporation assay by HIV-1 RT (primer-template P1T1)
# Assay type: biochemical
# condition_context: 200 μM substrate, 20 min, P1T1 125 nM
What % of P + 1 was measured for each of the following?
Write the answer as a number in %, unit excluded.

Qu. Entry under review: `Nc1ncnc2c1ncn2[C@H]1C[C@H](O)[C@@H](COP(=O)(O)N[C@@H](CP(=O)(O)O)C(=O)O)O1` . Reported % of P + 1?
Ans. 93.8

Qu. Entry under review: `Nc1ncnc2c1ncn2[C@H]1C[C@H](O)[C@@H](COP(=O)(O)N[C@@H](COP(=O)(O)O)C(=O)O)O1` . Reported % of P + 1?
Ans. 4.6

Qu. Entry under review: `Nc1ncnc2c1ncn2[C@H]1C[C@H](O)[C@@H](COP(=O)(O)N[C@@H](CS(=O)(=O)O)C(=O)O)O1` . Reported % of P + 1?
Ans. 15.6

Qu. Entry under review: `Nc1ncnc2c1ncn2[C@H]1C[C@H](O)[C@@H](COP(=O)(O)NCCS(=O)(=O)O)O1` . Reported % of P + 1?
Ans. 5.7

The reported measurements were obtained from patent US20120245029A1.
